Molecular target: Galanin receptor type 3 (Homo sapiens) (UniProt O60755)
Sequence (O60755 1-299 limits assumed): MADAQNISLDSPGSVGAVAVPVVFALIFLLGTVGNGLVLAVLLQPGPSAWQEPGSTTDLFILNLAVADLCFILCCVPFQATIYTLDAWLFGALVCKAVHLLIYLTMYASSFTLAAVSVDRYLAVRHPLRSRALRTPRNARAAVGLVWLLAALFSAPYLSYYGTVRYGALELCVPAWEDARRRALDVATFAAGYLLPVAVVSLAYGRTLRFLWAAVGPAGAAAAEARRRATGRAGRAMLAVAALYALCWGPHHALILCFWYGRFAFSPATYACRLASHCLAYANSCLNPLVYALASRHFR
Assay: blockers of human galanin receptor 3 – cell-based, fluorescence, triplicate, confirmation (AID 652245);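 also: 0% = forskolin plus galanin and 100% = forskolin alone with DMSO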
Settings: HEK293 GalR3 CNG cAMP biosensor, membrane potential fluorescence; at 3 µM; hits give high values; challenged with forskolin and galanin at EC90; galR3 fused to GalR1 carboxy tail
Out of some 1,600 compounds screened, about 920 (58%) were called active. So high a share suggests a set chosen from earlier hits. A selection follows.
Below is a list of entries, each paired with its recorded inhibition value.

{"entry smiles": "CC(=O)c1c(C)[nH]c(C(=O)COC(=O)c2cccc(S(=O)(=O)N(C)c3ccccc3)c2)c1C", "inhibition, %": 82.3}
{"entry smiles": "CCN(CC(=O)NCc1ccc(Cl)cc1)C(=O)CSc1ccccc1", "inhibition, %": 56.2}
{"entry smiles": "COc1ccc(-c2csc(-c3cccs3)n2)cc1OC", "inhibition, %": -4.97}
{"entry smiles": "COc1cc2c(cc1OC)C(c1cccc([N+](=O)[O-])c1)=NCC2", "inhibition, %": 17.9}
{"entry smiles": "COc1cc(C(=O)Nn2c(O)c(C3=c4ccccc4=NC3=O)sc2=S)ccc1O", "inhibition, %": 5.9}
{"entry smiles": "COc1cc(Cl)c(C)cc1NC(=O)[C@@H]1CCCN1C(=O)c1cccs1", "inhibition, %": 17.8}
{"entry smiles": "CCOc1cc(C(=O)N2CCc3cc(OC)c(OC)cc3C2)ccc1OC(F)F", "inhibition, %": 6.34}
{"entry smiles": "Nc1nonc1-n1nnc(C(=O)N/N=C/c2cc(Br)ccc2O)c1CSC1=NCCS1", "inhibition, %": 63.2}
{"entry smiles": "COCCNC(=O)/C(C#N)=C/c1cccc(OCc2ccccc2)c1", "inhibition, %": -3.13}
{"entry smiles": "CCc1ccc(-c2nc(SCC(=O)NC3CCCC3)n[nH]2)cc1", "inhibition, %": 3.25}

Source: PubChem BioAssay AID652245
